The values you see were collected from PubChem BioAssay (NCI).

# Test system: RPMI-8226 leukemia
# assay: NCI-60 one-dose screen, 48 h (100 = growth as untreated, 0 = no growth, -100 = all killed)
# experimental_setup: 10 µM unless noted
This is part of a sample that, as a whole, favours compounds with a hit. Of some 83,000 tested, about 20% had one in any assay.
// growth lookup, one value per entry
Your answer is read as %, so omit the unit and give the number.

Sample records with growth:
| compound | system_under_test | growth, % |
| --- | --- | --- |
| C#CC#CC#CC#CC#CC#CC#CC#CCC1OCC(COC(=O)O[C@@H](C(=O)O[C@H]2C[C@@]3(O)[C@@H](OC(=O)c4ccccc4)[C@@H]4[C@]5(OC(C)=O)CO[C@@H]5C[C@H](O)[C@@]4(C)C(=O)[C@H](OC(C)=O)C(=C2C)C3(C)C)[C@@H](NC(=O)c2ccccc2)c2ccccc2)O1 (some centres undefined) | RPMI-8226 leukemia | 7.03 |
| CS(=O)(=O)Cc1cnc(C2OCCO2)s1 | RPMI-8226 leukemia | 109 |
| COc1ccc(C2=C/C(=C\c3ccc(Cl)cc3)C(=O)N2/N=C/c2ccc(Cl)cc2)cc1 | RPMI-8226 leukemia | 101 |

Now turn to the next compound.
Value of growth reported for the compound `C/C(C=O)=C\c1ccc2c(c1)OCO2` is 96.7

---

# System: BT-549 breast
# assay: NCI-60 one-dose screen, 48 h (100 = growth as untreated, 0 = no growth, -100 = all killed)
# experimental_setup: 10 µM unless noted
The panel holds about 83,000 compounds, 20% with a hit somewhere; the sample as a whole holds those more often. The source made the active and inactive calls. Rule for the calls: active = growth percent below 10; inactive = the rest.
Collected growth values appear next to each entry.

Observe how each entry below is paired with its result.
| compound | assay_endpoint | result |
| --- | --- | --- |
| CCc1ccc(CCC(=O)Nc2ncc(Cc3ccc(Cl)cc3)s2)o1 | growth | 61.3% (inactive) |
| COc1cccc(/C=C/C(=O)c2cc3c(N)c(C(=O)Nc4ccccc4C)sc3nc2C)c1 | growth | 37.8% (inactive) |
| N#Cc1c(-c2ccccc2)nc2c(c(-c3ccccc3)nn2-c2ccccc2)c1-c1ccc(N2CCOCC2)cc1 | growth | 99.8% (inactive) |

Measured growth, O=C1Nc2ccccc2C2c3cccn3-c3ccccc3N12 (configuration not stated) : 82.7% (inactive)

The value of growth measured for the compound `Cn1ncc2ccc(-c3nc(-c4ccccc4)[nH]c3-c3n[nH]c(=O)n3C3CC3)cc21` turned out to be 106% (inactive)

Quick note, growth for `C=C1C(=O)O[C@H]2[C@H]1CC/C(COC(=O)c1cc3cc(F)ccc3[nH]1)=C\CC[C@@]1(C)O[C@@H]21` landed at -82.9% (active)

// growth lookup, compound = `Cn1c(/C=C/[N+](=O)[O-])cc2ccccc21` , result: -43.2% (active)

Reported growth of `CN1CCN(CCOc2ccc(-c3cnc4c(-c5ccc(C(F)(F)F)cc5)cnn4c3)cc2)CC1` : 47.8% (inactive)

Looking up COc1ccc(NC(=O)c2cccc(C3CCc4c(cc(OC)c(OC)c4OC)O3)c2)cc1 (configuration not stated) , I see its growth listed as 25.9% (inactive)

// growth value for `CCCCCn1sc(=O)n(Cc2ccc(CNC(=O)OCc3ccc4c(Cl)cc(Cl)c(O)c4n3)cc2)c1=O` : 71.1% (inactive)

Entry `NS(=O)(=O)c1ccc(N/C=C/C(=O)c2cc3ccccc3oc2=O)cc1` — recorded growth = 95.5% (inactive)

Item: `CC1(C)OC(=O)C(=Cc2cccc(Br)c2)C(=O)O1` | growth: 108% (inactive)

---

# Tested on: SNB-19 CNS
# assay: NCI-60 one-dose screen, 48 h
# experimental_setup: 10 µM unless noted
This is part of a sample that, as a whole, favours compounds with a hit. Of some 83,000 tested, about 20% had one in any assay. Active and inactive are the calls of the source. Rule for the calls: active = growth percent below 10; inactive = the rest.
I would appreciate it if you answered using one of these outcomes: active, inactive

| compound | cat |
| --- | --- |
| COc1ccc2nc3ccccc3c(NCc3ccccc3)c2c1 | inactive |
| CCNc1nc(-c2ccc(F)cc2)c(C#N)c(=O)n1C | inactive |
| O=C1NC(=Nc2ccc(O)cc2)S/C1=C\c1cccs1 | inactive |
| CCC/C(=N\NC(N)=O)C(OC)OC | inactive |
| CCN1C(=O)N(CC)C2C1NN=c1s/c(=C\c3cc4ccccc4[nH]3)c(=O)n12 (stereo not given) | inactive |

What call does the record list for `N#C/C(=C\c1ccc(Cl)cc1Cl)C(=O)Nc1ncc(Cc2ccc(Cl)c(Cl)c2)s1` ?
inactive

Please indicate how the test categorized COc1ccc(C(O)c2cc3c(N)c(C(=O)Nc4cccc(Cl)c4)sc3nc2C)cc1 (stereo not given) .
inactive

Outcome? `N=C(N)c1ccc(-c2ccc(-c3ccc(F)cc3)s2)s1`
active

GET /call?item= `C=C(CN1CC=CCC1)[C@@H]1CC[C@]2(CO)CC[C@]3(C)[C@H](CC[C@@H]4[C@@]5(C)CC[C@H](O)C(C)(C)[C@@H]5CC[C@]43C)[C@@H]12` returns the recorded outcome of this test.
inactive

Per the assay record, what outcome was assigned to `COc1ccc(OC)c(Nc2nnc(-c3ccc(Cl)cc3)o2)c1` ?
inactive

What outcome does the record of this test show for CC1O[C@@H]2C[C@@](O)([C@H]1O)n1c3ccccc3c3c4c(c5c6ccccc6n2c5c31)C(=O)NC4=O (stereo not given in full) ?
inactive

---

# Test system: NCI-H226 lung
# assay: NCI-60 one-dose screen, 48 h (100 = growth as untreated, 0 = no growth, -100 = all killed)
# experimental_setup: 10 µM unless noted
Compounds without any hit were thinned out: in the full panel of roughly 83,000, 20% have a hit.
assay_endpoint: growth (%)
Please give a number only; it is taken to be in %.

Consider `Cc1cc2nc3c4ccccc4n(CCN(C)C)c3nc2cc1C` . Its measured growth is 11.3

For this compound ( `COc1cc2cc(Oc3ccc(NC(=O)Nc4ccccc4)cc3)c(C)nc2cc1OCCN1CCCCC1` ), measured growth is 99.8

---

growth for assorted compounds
# Test system: CCRF-CEM leukemia
# assay: NCI-60 one-dose screen, 48 h (100 = growth as untreated, 0 = no growth, -100 = all killed)
# experimental_setup: 10 µM unless noted
Compounds without any hit were thinned out: in the full panel of roughly 83,000, 20% have a hit. Active and inactive are the calls of the source. How the source made its calls: active means growth percent below 10; inactive means the rest.

Some entries whose results are on file:
| compound | system_under_test | growth |
| --- | --- | --- |
| O=C1OCC2=C1C(c1cccc(C(F)(F)F)c1)c1cc3c(cc1N2CCO)OCO3 (centres undefined) | CCRF-CEM leukemia | 7.82% (active) |
| COc1cc2c3c(n(CCCCNCCCn4c5c(c6cc(OC)c(OC)cc6c4=O)C(=O)c4cc6c(cc4-5)OCO6)c(=O)c2cc1OC)-c1cc2c(cc1C3=O)OCO2 | CCRF-CEM leukemia | 101% (inactive) |
| C=C1C(=O)O[C@H]2[C@H]1CC/C(COC(=O)NCc1ccc(Cn3c(=O)sn(-c4ccc(OC)cc4)c3=O)cc1)=C\CC[C@@]1(C)O[C@@H]21 | CCRF-CEM leukemia | -34.7% (active) |

The compound identified as `C[C@@H]1O[C@@H](O[C@@H]2C[C@H](c3ccc4c(c3O)C(=O)C3=C(C4=O)[C@@]4(O)C(=O)C[C@](C)(O)C[C@@]4(O)C=C3)O[C@H](C)[C@H]2O)C[C@H](O)[C@@H]1O` registered its growth at 93.8% (inactive)

For reference, reported growth for `O=C(CN1CCN(c2cc3c(cc2F)c(=O)c(C(=O)O)cn3C2CC2)CC1)N/N=C/c1ccncc1` stands at 94% (inactive)

Looking up `Cc1ccc(C(=O)c2ccc(CC(=O)N/N=C/c3ccc(O)cc3O)n2C)cc1` , I found its growth recorded as 16.8% (inactive)

---

# Tested on: NCI-H460 lung
# assay: NCI-60 one-dose screen, 48 h (100 = growth as untreated, 0 = no growth, -100 = all killed)
# experimental_setup: 10 µM unless noted
Compounds without any hit were thinned out: in the full panel of roughly 83,000, 20% have a hit.
# reported growth; entries follow
State just the number; it will be interpreted in %.

| molecule | units_label | numeric_readout |
| --- | --- | --- |
| COc1ccc(Cn2cc(C(=O)N=Nc3c(O)[nH]c4c(Cl)cccc34)nn2)cc1 | % | 99.7 |
| CCn1c2ccc(O)cc2c2c(C)c3c[n+](C(C)C)ccc3c(C)c21 | % | 9.02 |
| COc1cc(/C=C\c2cc(/C=C\c3ccc(O)c(OC)c3)n(C(=O)CNc3ccc(Cl)cc3)n2)ccc1O | % | 6.98 |
| Cn1cc(-c2ccc3cc(-c4ccc(CC(=O)Nc5cc(C(C)(C)C)on5)cc4)cnc3c2)cn1 | % | -3.39 |
| CC1O[C@@H]2C[C@@](O)([C@H]1O)n1c3ccccc3c3c4c(c5c6ccccc6n2c5c31)C(=O)NC4=O (stereo partly drawn) | % | 11.3 |

Sample COc1ccc(C2=Nc3c(N)ncnc3NC(c3cccc(Nc4ccnc5cc(C(F)(F)F)ccc45)c3)C2)cc1 (stereo not drawn) ; growth observed: 70.9

Reported growth for `O=C(CN1CCN(c2cc3c(cc2F)c(=O)c(C(=O)O)cn3C2CC2)CC1)N/N=C/c1ccncc1` was 106

# growth of Cc1ccc(-c2cc(C(=O)N3N=C(c4ccc(N)cc4)CC3c3ccc(Cl)cc3)c3ccccc3n2)cc1 (stereo not drawn) = 12.9
